Origin of values: paper PMC6116705

Tested on: human breast adenocarcinoma (MCF-7) cells
MEASUREMENT_DESCRIPTION: Antiproliferative assay, cell counting (Coulter Counter), MCF-7
Format: cell-based
MEASUREMENT_CONDITIONS: Homo sapiens, MCF7, MCF-7, reference compounds in nM; read-out: IC50, inhibition of proliferation
ENDPOINT_LABEL: IC50 (nM)
Answers are plain numbers, in nM.

GET /values?readout=IC50&item= COc1ccc2c(/C=C/C(=O)c3cc(OC)c(OC)c(OC)c3)c[nH]c2c1 [4a, reference compound] 49

----------
For each record, write down the corresponding melting point.

Sample answers from the record:
COC(=O)c1c(/C=C/C(=O)c2cc(OC)c(OC)c(OC)c2)c2cc(OC)ccc2n1C	150 to 151 °C
COC(=O)c1c(/C=C/C(=O)c2cc(OC)c(OC)c(OC)c2)c2cc(OC)ccc2n1Cc1ccccc1	170 to 171 °C

Then there is this molecule:
// lookup melting point for `CCn1c(C(=O)OC)c(/C=C/C(=O)c2cc(OC)c(OC)c(OC)c2)c2ccc(OC)cc21` 157 to 158 °C

----------
System: human myeloid leukaemia U-937 cells
MEASUREMENT_DESCRIPTION: MTT cytotoxicity assay, U-937
Format: cell-based
MEASUREMENT_CONDITIONS: U-937, MTT, 72 h, read-out: IC50, inhibition of cell growth
Assign pIC50 to each entry below.
Answers are plain numbers, as −log10 of the molar value.

Answered examples (2):
COC(=O)c1[nH]c2cc(OC)ccc2c1/C=C/C(=O)c1cc(OC)c(OC)c(OC)c1	5.24
CCOC(=O)c1[nH]c2cc(OC)ccc2c1/C=C/C(=O)c1cc(OC)c(OC)c(OC)c1	5.19

Turning now to a further compound:
Entry `CCOC(=O)c1[nH]c2ccc(OC)cc2c1/C=C/C(=O)c1cc(OC)c(OC)c(OC)c1` has what pIC50? 5.54

----------
Tested on: human breast adenocarcinoma (MCF-7) cells
MEASUREMENT_DESCRIPTION: Antiproliferative assay, cell counting (Coulter Counter), MCF-7
Assay type: cell-based
MEASUREMENT_CONDITIONS: Homo sapiens, MCF7, MCF-7, 72–96 h; read-out: IC50, inhibition of proliferation
ENDPOINT_LABEL: log10 of IC50 (log10 of the value in µM)
Note the log scale: values are log10 of IC50 expressed in µM.

Solved entries (count: 6):
COC(=O)c1[nH]c2cc(OC)ccc2c1/C=C/C(=O)c1cc(OC)c(OC)c(OC)c1	-0.77
CCOC(=O)c1[nH]c2ccccc2c1/C=C/C(=O)c1cc(OC)c(OC)c(OC)c1	0.26
COC(=O)c1c(/C=C/C(=O)c2cc(OC)c(OC)c(OC)c2)c2cc(OC)ccc2n1C	0.43
CCn1c(C(=O)OC)c(/C=C/C(=O)c2cc(OC)c(OC)c(OC)c2)c2ccccc21	1.04
CCOC(=O)c1c(/C=C/C(=O)c2cc(OC)c(OC)c(OC)c2)c2cc(OC)ccc2n1CC	1.41
CCOC(=O)c1c(/C=C/C(=O)c2cc(OC)c(OC)c(OC)c2)c2ccccc2n1C	0.92

Hi! Can you tell me log10 of IC50 for each of these molecules?
1. COC(=O)c1c(/C=C/C(=O)c2cc(OC)c(OC)c(OC)c2)c2ccc(OC)cc2n1C
2. COC(=O)c1[nH]c2ccc(OC)cc2c1/C=C/C(=O)c1cc(OC)c(OC)c(OC)c1

1. 1.04
2. -0.23
